B1: DLC1 (parent)
chain: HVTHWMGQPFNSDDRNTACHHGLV

variants of: B1; assay: protein stability index of a GFP-peptide fusion (GPS, HEK-293T) (PSI 1-6); higher = more stable; settings: c terminus: a fixed tail appended;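 note: lentivirally expressed fusions sorted by FACS into six bins by GFP to DsRed ratio, PSI derived from sequencing read proportions per bin multiplied by bin number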
A collection of variants and their measured protein stability index
Form rule: numeric answer, no unit written next to it.

These solved cases illustrate the format of a correct answer.
[[record]]
alteration = "W5H"
measuredresult = 3.8

[[record]]
alteration = "V2I"
measuredresult = 2.22

[[record]]
alteration = "P9D"
measuredresult = 1.99


Bench note: what protein stability index did H20K show?
2.41

FYI, the data here is from the supplement of paper PMC10567573.
